Test system: MDA-MB-468 breast
Assay details: NCI tumour cell line growth inhibition, 48 h
Recorded endpoint: GI50

Clc1ccc(N/N=C(\c2ccccc2)c2ccccn2)nc1
31.3 nM
CCCCCCCCc1ccc(CCC(N)(CO)CO)cc1
1630 nM
NS(=O)(=O)c1cccc(Nc2nc(SCC(=O)c3ccc([N+](=O)[O-])cc3)nc3ccccc23)c1
15600 nM
N=C1N=C(N)S/C1=C\c1ccc2ncccc2c1
> 25000 nM

Incoming: Recorded GI50 of O=C1c2ccccc2C(=O)c2sc(Nc3ccc(Cl)cc3)nc21 , please.
Outgoing: 1980 nM

Incoming: Same read-out for COc1ccc(Nc2ncc(-c3ccccc3)o2)cc1OC ?
Outgoing: > 11600 nM

###

Test system: MDA-MB-468 breast
Assay details: NCI tumour cell line growth inhibition, 48 h; in the data active = GI50 below about 0.43 µM; inactive = the rest
Pick from 1 = active, 0 = inactive when you respond.

Would you please look over these solved cases?
O=C(NNc1nc2cc(F)ccc2n2c(CN3CC4CNCC4C3)ccc12)c1ccncn1 (stereo not given)
0
CC(=O)OC1CC2(O)C(CCC3(C)C(c4ccc(=O)oc4)CCC32O)C2(C)CCC(OC3OC(CO)C(O)C(O)C3O)C=C12 (stereo not given)
1
N#CSCC1CC(O)(c2ccccc2)CC(c2ccc(Cl)cc2)O1 (stereo not given)
0
C=C1[C@@H](O)C[C@H]2C(C)(C)C[C@H](Cl)C[C@]2(C)[C@H]1C[C@H](O)[C@H]1CC(=O)NC1=O
1

Incoming: Name the outcome recorded for O=C(c1ccccc1)c1ccc(O)c2ncccc12 in the assay.
Outgoing: 0

###

Tested on: MDA-MB-468 breast
Assay details: NCI tumour cell line growth inhibition, 48 h
Mark condition met for reported TGI of 5 µM or greater; mark condition not met for anything smaller.

Would you please look over these solved cases?
OCc1ncc(-c2ccccc2)s1
condition met
COc1ccc(C2CC(c3cccc(OC)c3)=NN2C(=O)c2cc(OC)c(OC)c(OC)c2)cc1 (stereo not given)
condition met
c1ccc2c(-c3cnn4cc(-c5ccc(N6CCNCC6)cc5)cnc34)ccnc2c1
condition not met

Incoming: Entry CC(=O)OC1CC2(O)C(CCC3(C)C(c4ccc(=O)oc4)CCC32O)C2(C)CCC(OC3OC(CO)C(O)C(O)C3O)C=C12 (stereo not given) : is its TGI no less than 5 µM?
Outgoing: condition not met

Incoming: Same read-out for CNC12C3C4C1C1C2C3C41C(=O)N[C@H](C(=O)N(C)[C@H](C[C@@H](OC(C)=O)c1nc(C(=O)N[C@@H](Cc2ccccc2)C[C@H](C)C(=O)OC)cs1)C(C)C)C1CC1 (stereo not given in full) ?
Outgoing: condition not met

Incoming: Same read-out for COc1ccc(Nc2ncc(-c3ccccc3)o2)cc1OC ?
Outgoing: condition met

Incoming: Same read-out for CC(=O)Oc1ccccc1C(=O)NCCC[Se]C#N ?
Outgoing: condition met

Incoming: Same read-out for NC(=S)N/N=C/c1ccc(OC(=O)COc2ccccc2)cn1 ?
Outgoing: condition met

Incoming: Same read-out for CCOC(=O)Nc1ccc(C(=O)/C=C/c2ccccc2)cc1 ?
Outgoing: condition met

###

System: MDA-MB-468 breast
Assay details: NCI tumour cell line growth inhibition, 48 h; in the data active = GI50 below about 0.43 µM; inactive = the rest
Pick from active, inactive when you respond.

Would you please look over these solved cases?
Cc1nc2ccccc2c(/C=C/c2ccccc2)c1C(=O)/C=C/c1ccc(Cl)cc1
inactive
OCc1ncc(-c2ccccc2)s1
inactive
C=C1C(=O)O[C@H]2[C@H]1CC/C(COC(=O)C(=O)c1c[nH]c3ccc(Cl)cc13)=C\CC[C@@]1(C)O[C@@H]21
active

Now, please, on to the next molecule.
Incoming: Name the outcome recorded for CC1=C(C(=O)OCc2ccccc2)C(c2cccc3ccccc23)n2c(nc3ccccc32)N1 (centres undefined) in the assay.
Outgoing: inactive

###

System: MDA-MB-468 breast
Assay details: NCI tumour cell line growth inhibition, 48 h
Recorded endpoint: TGI (µM)
Provide only the numeric value, understood in µM.

Example compounds with recorded TGI:
Clc1ccc(N/N=C(\c2ccccc2)c2ccccn2)nc1
0.316
C#C[C@]1(O)CC[C@H]2[C@@H]3CC=C4c5sc(-c6ccc7c(c6)OCO7)nc5CC[C@]4(C)[C@H]3CC[C@@]21C
10
CC(C)c1ccc(/C=N/N=C(N)N)cc1
5.07
CC1=C(C(=O)OCc2ccccc2)C(c2cccc3ccccc23)n2c(nc3ccccc32)N1 (stereo unspecified)
7.26

Consider the additional compound presented here.
Incoming: Recorded TGI of CNC(C)[C@H]1CCC2C3CCC4C[C@@H](N(C)C(=O)c5ccccc5)CC[C@]4(C)C3CC[C@@]21C (stereo partly specified) , please.
Outgoing: 2.72
